Values from ChEMBL document CHEMBL5108044

- testedSystem: Mitogen-activated protein kinase 8 (Homo sapiens)
- Sequence (P45983 whole entry): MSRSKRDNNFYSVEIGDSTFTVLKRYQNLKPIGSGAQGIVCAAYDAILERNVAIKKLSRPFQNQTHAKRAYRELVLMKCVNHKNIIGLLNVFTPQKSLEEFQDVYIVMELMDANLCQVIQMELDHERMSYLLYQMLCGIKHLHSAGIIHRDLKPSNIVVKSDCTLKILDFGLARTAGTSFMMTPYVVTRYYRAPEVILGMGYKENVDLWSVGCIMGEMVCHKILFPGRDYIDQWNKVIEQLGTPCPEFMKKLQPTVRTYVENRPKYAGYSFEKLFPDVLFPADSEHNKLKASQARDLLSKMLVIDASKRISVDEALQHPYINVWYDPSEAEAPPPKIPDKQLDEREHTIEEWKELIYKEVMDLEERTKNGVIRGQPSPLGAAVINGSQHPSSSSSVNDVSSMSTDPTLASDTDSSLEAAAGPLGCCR
- experimentNotes: Inhibition of JNK1 (unknown origin)
readoutType: IC50

**Query** Find the measured IC50 of "O=C(c1ccc(-c2noc(-c3ccc(C(F)(F)F)cc3)n2)cc1)N1CCN(Cc2ccc(OCC(F)(F)F)cc2)CC1" and report it.
**Result** > 10 µM

###

- experimentNotes: AUC (0 to infinity) in ICR mouse plasma at 10 mg/kg, po measured up to 24 hrs by LC-MS/MS analysis
- Format: ADME, organism-based
- Set-up: dose 10 mg/kg, time < 24 hrs, route po
readoutType: AUC(0-inf) (ng·h/mL)
Give your result in ng·h/mL as a bare value.

**Query** Find the measured AUC(0-inf) of "O=C(c1ccc(-c2noc(-c3ccc(C(F)(F)F)cc3)n2)cc1)N1CCN(Cc2ccc(OCC(F)(F)F)cc2)CC1" and report it.
**Result** 15500

###

- testedSystem: Cytochrome P450 1A2 (Homo sapiens, UniProt P05177)
- Sequence (P05177 whole entry): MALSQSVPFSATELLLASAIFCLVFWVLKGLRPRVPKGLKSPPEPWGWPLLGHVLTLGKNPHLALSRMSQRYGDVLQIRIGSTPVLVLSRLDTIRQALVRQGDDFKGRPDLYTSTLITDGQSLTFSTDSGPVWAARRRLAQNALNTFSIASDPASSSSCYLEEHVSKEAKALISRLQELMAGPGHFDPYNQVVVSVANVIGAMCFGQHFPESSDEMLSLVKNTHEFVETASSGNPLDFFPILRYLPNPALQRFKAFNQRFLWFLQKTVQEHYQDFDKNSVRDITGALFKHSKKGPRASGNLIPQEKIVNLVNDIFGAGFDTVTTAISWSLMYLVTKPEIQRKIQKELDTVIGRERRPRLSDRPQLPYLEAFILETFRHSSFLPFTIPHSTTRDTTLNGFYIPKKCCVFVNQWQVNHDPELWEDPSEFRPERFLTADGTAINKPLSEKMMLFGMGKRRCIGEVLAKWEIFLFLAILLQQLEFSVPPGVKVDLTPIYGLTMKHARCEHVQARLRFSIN
pIC50: −log10 of the molar value.
readoutType: pIC50

**Query** Find the measured pIC50 of "O=C(c1ccc(-c2noc(-c3ccc(C(F)(F)F)cc3)n2)cc1)N1CCN(Cc2ccc(OCC(F)(F)F)cc2)CC1" and report it.
**Result** < 4.30

###

- experimentNotes: Clearance in ICR mouse plasma at 1 mg/kg, iv measured up to 24 hrs by LC-MS/MS analysis
- Type: ADME, organism-based
readoutType: clearance (mL/min/kg)
Give your result in mL/min/kg as a bare value.

**Query** Find the measured clearance of "O=C(c1ccc(-c2noc(-c3ccc(C(F)(F)F)cc3)n2)cc1)N1CCN(Cc2ccc(OCC(F)(F)F)cc2)CC1" and report it.
**Result** 7.33

###

- testedSystem: Tyrosine-protein kinase JAK1 (Homo sapiens, UniProt P23458)
- Sequence (P23458 whole entry): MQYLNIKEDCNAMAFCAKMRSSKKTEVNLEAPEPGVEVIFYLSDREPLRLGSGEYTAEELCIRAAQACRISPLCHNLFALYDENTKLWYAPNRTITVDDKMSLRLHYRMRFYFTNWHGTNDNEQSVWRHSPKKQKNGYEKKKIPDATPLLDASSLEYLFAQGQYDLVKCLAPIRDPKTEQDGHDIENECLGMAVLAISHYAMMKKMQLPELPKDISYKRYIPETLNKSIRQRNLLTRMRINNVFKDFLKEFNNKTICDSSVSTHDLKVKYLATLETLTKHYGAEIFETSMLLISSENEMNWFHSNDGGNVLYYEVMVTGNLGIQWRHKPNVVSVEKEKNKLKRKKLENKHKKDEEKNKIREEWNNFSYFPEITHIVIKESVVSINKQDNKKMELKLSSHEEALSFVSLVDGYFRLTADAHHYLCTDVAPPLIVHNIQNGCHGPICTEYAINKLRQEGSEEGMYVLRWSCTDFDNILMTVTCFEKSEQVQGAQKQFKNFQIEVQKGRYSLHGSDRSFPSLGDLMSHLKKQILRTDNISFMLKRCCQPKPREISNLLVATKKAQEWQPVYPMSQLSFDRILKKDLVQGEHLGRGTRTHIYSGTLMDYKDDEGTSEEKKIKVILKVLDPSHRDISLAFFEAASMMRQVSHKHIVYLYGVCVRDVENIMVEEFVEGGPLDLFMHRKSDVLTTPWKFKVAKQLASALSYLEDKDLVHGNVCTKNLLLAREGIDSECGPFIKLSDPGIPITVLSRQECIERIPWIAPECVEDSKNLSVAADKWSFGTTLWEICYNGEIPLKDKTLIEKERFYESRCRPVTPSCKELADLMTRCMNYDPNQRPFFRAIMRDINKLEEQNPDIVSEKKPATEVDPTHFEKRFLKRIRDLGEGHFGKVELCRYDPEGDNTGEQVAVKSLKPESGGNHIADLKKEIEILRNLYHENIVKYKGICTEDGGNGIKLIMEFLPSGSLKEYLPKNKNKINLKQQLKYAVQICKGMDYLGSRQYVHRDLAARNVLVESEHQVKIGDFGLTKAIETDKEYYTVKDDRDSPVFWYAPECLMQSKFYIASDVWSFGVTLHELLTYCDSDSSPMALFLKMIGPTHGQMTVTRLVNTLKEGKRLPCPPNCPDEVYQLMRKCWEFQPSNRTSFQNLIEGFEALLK
readoutType: IC50

**Query** Please report IC50 with Tyrosine-protein kinase JAK1 (Homo sapiens, UniProt P23458) for item "O=C(c1ccc(-c2noc(-c3ccc(C(F)(F)F)cc3)n2)cc1)N1CCN(Cc2ccc(OCC(F)(F)F)cc2)CC1" .
**Result** > 10 µM

###

- experimentNotes: Elimination half life in ICR mouse plasma at 10 mg/kg, po measured up to 24 hrs by LC-MS/MS analysis
- Assay type: ADME, organism-based
- experimentalParameters: read-out: beta t1/2 (converted)
readoutType: half-life (h)
Give your result in h as a bare value.

**Query** Find the measured half-life of "O=C(c1ccc(-c2noc(-c3ccc(C(F)(F)F)cc3)n2)cc1)N1CCN(Cc2ccc(OCC(F)(F)F)cc2)CC1" and report it.
**Result** 16
